Tested on: monoclonal antibody 12-9-9
Assay: In vitro binding assay (ELISA) with monoclonal antibody 12-9-9
Parameters: species or system mouse; key: 0: no binding to 12-9-9 detectable in ELISA; 1: weak binding: binding of mimotope weaker compared to the minimal original sequence p5436; 2: strong binding: binding of mimotope similar to the minimal original sequence p5436
Experimental Parameters: binding capacity to 12-9-9 in ELISA, peptide-BSA coated (1 μM), compared with p5436
Consider the following sequences; for each one, report its Binding.
Returns: the value as a bare number; no unit string appended.

Sample GKNEEGAPQC [p5397, reference compound] — what was its Binding?
2

Sample QASSKLDC [p5549, mimotope] — what was its Binding?
1

Sample RQDEGAPC [p5602, mimotope] — what was its Binding?
2

Sample RNDEGAPC [p5587, mimotope] — what was its Binding?
2

Sample KNEEGAPC [p5436, reference compound] — what was its Binding?
2

Sample KSAEGAPC [p5599, mimotope] — what was its Binding?
2

Sample APSWKGEC [p5556, mimotope] — what was its Binding?
2

Sample ASEEGAPC [p5594, mimotope] — what was its Binding?
1

Sample KNEEGAPQC [p5398, reference compound] — what was its Binding?
2

Sample KAEEGAPC [p5438, mimotope] — what was its Binding?
1

Sample ANDEGAPC [p5591, mimotope] — what was its Binding?
2

Sample HSDEGAPC [p5608, mimotope] — what was its Binding?
1

Sample KNDDGAPC [p5449, mimotope] — what was its Binding?
2

Sample KNDEGAPC [p5445, mimotope] — what was its Binding?
2

Sample RQDDGAPC [p5610, mimotope] — what was its Binding?
2

Sample SPSFKQEC [p5463, mimotope] — what was its Binding?
2

Sample TPSWAGEC [p5558, mimotope] — what was its Binding?
2

Sample HNEEGAPC [p5444, mimotope] — what was its Binding?
2

Sample KSEDGAPC [p5601, mimotope] — what was its Binding?
2

Sample KSDEGAPC [p5600, mimotope] — what was its Binding?
2

Sample RNEDGAPC [p5588, mimotope] — what was its Binding?
2

Sample QPSSKLDC [p5468, mimotope] — what was its Binding?
2

Sample DPSFALEC [p5465, mimotope] — what was its Binding?
2

Sample HSEEGAPC [p5593, mimotope] — what was its Binding?
1

src = patent US8828942B2
